half-life at 1 µM listing for selected molecules.
assay: Metabolic stability in rat liver microsomes (phase I and II); type: in vitro ADME; conditions: rat, microsomes, pH 7.5; cofactors for phases I and II; read-out: RLM T1/2

Task: half-life at 1 µM for C[C@](O)(Cn1cc(Cl)cn1)C(=O)Nc1ccc(C#N)c(C(F)(F)F)c1 [Compound 16c] ?
Output: > 2 h

Task: half-life at 1 µM for C[C@](O)(Cn1cc(Br)c(F)n1)C(=O)Nc1ccc(C#N)c(C(F)(F)F)c1 [Compound 26a] ?
Output: > 2 h

Task: half-life at 1 µM for C[C@](O)(Cn1cc(C(F)(F)F)cn1)C(=O)Nc1ccc(C#N)c(C(F)(F)F)c1 [Compound 16g] ?
Output: > 2 h

====

Biological target: hAR-LBD (633-919) (Homo sapiens)
Sequence (P10275 633-919): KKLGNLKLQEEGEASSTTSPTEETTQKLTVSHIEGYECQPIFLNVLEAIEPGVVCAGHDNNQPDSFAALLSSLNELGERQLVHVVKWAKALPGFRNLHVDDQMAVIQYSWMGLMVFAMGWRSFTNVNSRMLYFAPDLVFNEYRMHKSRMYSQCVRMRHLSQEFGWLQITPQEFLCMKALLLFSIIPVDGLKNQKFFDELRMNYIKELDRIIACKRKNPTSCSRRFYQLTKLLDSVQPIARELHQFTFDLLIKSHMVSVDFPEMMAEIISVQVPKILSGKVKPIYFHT
Assay endpoint: pKi
The quantity pKi is defined as the negative base-10 logarithm of the molar concentration.

Task: pKi for C[C@](O)(Cn1cc(-c2ccc(C#N)cc2)nn1)C(=O)Nc1ccc(C#N)c(C(F)(F)F)c1 [Compound 29o] ?
Output: 5.82

====

experiment: Metabolic stability in human liver microsomes (phase I and II); type: in vitro ADME; details: pH 7.5, cofactors for phases I and II, read-out: HLM T1/2
Assay endpoint: half-life at 1 µM

Task: half-life at 1 µM for C[C@](O)(Cn1cc(Br)c(F)n1)C(=O)Nc1ccc(C#N)c(C(F)(F)F)c1 [Compound 26a] ?
Output: > 2 h
